Compiled notes: published IC50 values involving D-amino-acid oxidase (Sus scrofa).

compound: Oc1ccc2onc(O)c2c1
target of assay: D-amino-acid oxidase (Sus scrofa)
result: > 100 µM
//
compound: Cc1cc2onc(O)c2cc1Br
target of assay: D-amino-acid oxidase (Sus scrofa)
result: < 0.1 µM
//
compound: O=C(Oc1coc(CO)cc1=O)c1cc2occc2[nH]1
target of assay: D-amino-acid oxidase (Sus scrofa)
result: 10 to 100 µM
//
compound: O=C(O)c1n[nH]c2c1CCc1ccccc1-2
target of assay: D-amino-acid oxidase (Sus scrofa)
result: > 100 µM
//
compound: CC1CCCc2c(C(=O)O)n[nH]c21 (stereo not shown)
target of assay: D-amino-acid oxidase (Sus scrofa)
result: < 10 µM

Param readout = IC50; param system = D-amino-acid oxidase (Sus scrofa); param query = COc1cccc2c(O)noc12 ; response: value < 100 µM

Form entry - test system: D-amino-acid oxidase (Sus scrofa); read-out: IC50; compound: O=C(O)c1cc(CCc2ccc(F)cc2)c[nH]1 < 1 µM

Query IC50 on D-amino-acid oxidase (Sus scrofa) for Oc1noc2ccc(Cl)cc12 < 1 µM

Identify the measured IC50 of O=C(O)c1n[nH]c2c1CCCCCC2 for D-amino-acid oxidase (Sus scrofa). < 10 µM

I'm curious: which IC50 was measured for Oc1noc2cccc(F)c12 tested on D-amino-acid oxidase (Sus scrofa)? < 10 µM

Find IC50 (D-amino-acid oxidase (Sus scrofa)) for the entry Oc1noc2cc(Br)c(Br)cc12 < 0.1 µM

Recall the recorded IC50 for O=C(Cc1ccccc1)c1c[nH]c(C(=O)O)c1 with D-amino-acid oxidase (Sus scrofa) and state it. < 100 µM

// map O=C(O)c1n[nH]c2c1CC(OCc1ccccc1)CC2 (stereo not shown) to recorded IC50 (system: D-amino-acid oxidase (Sus scrofa)) < 100 µM

Record CC1CCc2c(C(=O)O)n[nH]c2C1 (stereo not shown) : what is its IC50 with D-amino-acid oxidase (Sus scrofa)? < 100 µM

Record lookup: for D-amino-acid oxidase (Sus scrofa), what IC50 belongs to O=C(O)c1cc(COc2ccccc2)[nH]n1 ? < 1 µM

Param readout = IC50; param system = D-amino-acid oxidase (Sus scrofa); param query = O=C(O)c1n[nH]c2c1CCCCC2 ; response: value < 10 µM

Enter reported IC50 observed with D-amino-acid oxidase (Sus scrofa) for Cc1ccc2onc(O)c2c1 < 10 µM
